Taken from patent US7309793B2.

Test system: isolated rat hearts
Test: Cardioprotective effect on isolated ischemic heart models of white rats (Langendorff, global ischemia-reperfusion)
Settings: 10 μM; during 30 min global ischemia; first 5 mmHg increase in EDP
observed_property: TTC (time to contracture / time to induce contraction) (min)
The figure you give is taken to be in min; do not add the unit.

Some compounds with known TTC (time to contracture / time to induce contraction) results, for comparison:
compound: COC(OC)[C@@]1(C)Oc2ccc([N+](=O)[O-])cc2[C@H](n2c(=O)[nH]c3ccccc32)[C@H]1O
system: isolated rat hearts
reported_result: 24.2

compound: CC1(C)Oc2ccc(C#N)cc2[C@@H](NC(=NC#N)Nc2ccc(Cl)cc2)[C@@H]1O [BMS-180448, reference compound]
system: isolated rat hearts
reported_result: 27.8

compound: CC1(C)Oc2ccc([N+](=O)[O-])cc2[C@H](n2c(=O)[nH]c3ccccc32)[C@H]1O
system: isolated rat hearts
reported_result: 23.9

Kindly review the next compound as well.
// query So what does the record say about TTC (time to contracture / time to induce contraction) for COC(OC)[C@@]1(C)Oc2ccc([N+](=O)[O-])cc2[C@H](n2c(=NC#N)[nH]c3ccccc32)[C@H]1O ?
// result 23.2

----------
This listing pairs compounds with measured LDH (concentration of lactate dehydrogenase, reperfusion release).
Test system: isolated rat hearts
Test: Cardioprotective effect on isolated ischemic heart models of white rats (Langendorff, global ischemia-reperfusion)
Conditions: 10 μM; after 30 min reperfusion
Field format: number, assumed unit/g, no unit text.

Example entries and their recorded answers appear below.
compound: COC(OC)[C@@]1(C)Oc2ccc([N+](=O)[O-])cc2[C@H](n2c(=O)[nH]c3ccccc32)[C@H]1O
reported_result: 20.4
//
compound: CC1(C)Oc2ccc(C#N)cc2[C@@H](NC(=NC#N)Nc2ccc(Cl)cc2)[C@@H]1O [BMS-180448, reference compound]
reported_result: 17.2
//
compound: CC1(C)Oc2ccc([N+](=O)[O-])cc2[C@H](n2c(=O)[nH]c3ccccc32)[C@H]1O
reported_result: 20.7

// query Dear colleague, I am looking for the recorded LDH (concentration of lactate dehydrogenase, reperfusion release) of the following compound: COC(OC)[C@@]1(C)Oc2ccc([N+](=O)[O-])cc2[C@H](n2c(=NC#N)[nH]c3ccccc32)[C@H]1O
// result 8.1
